Recorded values, source patent US7375136B2.

IC50 values, listed per item
Biological target: NR1-1a/NR2B receptors (Homo sapiens, UniProt Q05586+Q13224)
Sequence (Q13224 27-1484, other chains not shown): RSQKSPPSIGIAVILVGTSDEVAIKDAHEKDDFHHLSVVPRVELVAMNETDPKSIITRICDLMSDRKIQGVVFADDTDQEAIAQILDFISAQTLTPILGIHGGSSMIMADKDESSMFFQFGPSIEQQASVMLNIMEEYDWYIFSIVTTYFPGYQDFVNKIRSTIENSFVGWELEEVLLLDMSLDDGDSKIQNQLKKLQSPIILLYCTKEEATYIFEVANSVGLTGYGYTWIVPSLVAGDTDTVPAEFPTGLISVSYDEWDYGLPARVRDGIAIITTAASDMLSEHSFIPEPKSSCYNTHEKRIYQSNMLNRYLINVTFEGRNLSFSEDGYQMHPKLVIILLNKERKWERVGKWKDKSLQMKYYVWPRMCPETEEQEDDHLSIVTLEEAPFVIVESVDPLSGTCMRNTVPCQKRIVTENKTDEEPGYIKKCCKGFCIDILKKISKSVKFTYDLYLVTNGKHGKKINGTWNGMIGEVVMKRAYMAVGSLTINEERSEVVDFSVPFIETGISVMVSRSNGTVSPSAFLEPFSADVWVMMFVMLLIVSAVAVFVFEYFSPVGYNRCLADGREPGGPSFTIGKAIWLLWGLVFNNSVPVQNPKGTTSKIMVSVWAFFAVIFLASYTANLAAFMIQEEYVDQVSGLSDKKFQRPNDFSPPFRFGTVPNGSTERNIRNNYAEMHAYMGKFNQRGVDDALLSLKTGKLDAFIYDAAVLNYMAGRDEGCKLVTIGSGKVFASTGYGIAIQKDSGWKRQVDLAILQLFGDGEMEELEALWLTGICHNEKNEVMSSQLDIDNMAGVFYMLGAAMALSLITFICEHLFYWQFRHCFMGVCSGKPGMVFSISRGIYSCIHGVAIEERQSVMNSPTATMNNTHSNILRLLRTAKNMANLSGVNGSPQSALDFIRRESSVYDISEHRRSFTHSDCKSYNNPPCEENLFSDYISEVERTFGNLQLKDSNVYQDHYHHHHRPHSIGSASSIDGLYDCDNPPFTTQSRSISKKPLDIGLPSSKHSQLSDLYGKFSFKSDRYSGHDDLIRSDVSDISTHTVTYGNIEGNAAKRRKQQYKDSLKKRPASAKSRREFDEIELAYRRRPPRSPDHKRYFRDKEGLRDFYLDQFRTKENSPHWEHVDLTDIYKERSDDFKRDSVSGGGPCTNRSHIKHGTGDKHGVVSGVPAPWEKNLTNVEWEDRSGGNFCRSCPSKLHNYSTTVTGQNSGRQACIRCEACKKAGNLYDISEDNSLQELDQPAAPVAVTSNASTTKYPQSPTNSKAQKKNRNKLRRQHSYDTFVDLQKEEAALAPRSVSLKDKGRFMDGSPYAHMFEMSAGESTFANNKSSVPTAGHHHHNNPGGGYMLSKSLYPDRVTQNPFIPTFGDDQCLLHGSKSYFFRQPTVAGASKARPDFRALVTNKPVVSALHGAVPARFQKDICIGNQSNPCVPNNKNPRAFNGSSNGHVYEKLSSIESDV
Test: Two electrode voltage clamp of Xenopus oocytes expressing NR1-1a and NR2B NMDA receptor subunits; inhibition of glutamate/glycine current at pH 6.9 and 7.6
Type: cell-based
Details: Table B; pH 6.9; NR1-1a/NR2B in Xenopus oocytes; read-out: IC50 at pH 6.9

Sample records with IC50:
CS(=O)(=O)Nc1ccc(OC[C@@H](O)CN(CCc2ccc(Cl)c(Cl)c2)Cc2ccccc2F)cc1 [93-35 (S)] : 48 nM
CS(=O)(=O)Nc1ccc(OC[C@@H](O)CN(CCc2ccc(Cl)c(Cl)c2)Cc2cccc(F)c2)cc1 [93-34 (S)] : 210 nM
CS(=O)(=O)Nc1ccc(OCC2CN(CCc3ccc(Cl)c(Cl)c3)C(=O)O2)cc1 [93-27 (S)] : 338 nM
CS(=O)(=O)Nc1ccc(OC[C@@H](O)CNCCc2ccc(Cl)c(Cl)c2)cc1.Cl [93-4 (S), hydrochloride] : 26 nM
CS(=O)(=O)Nc1ccc(OC[C@@H](O)CN(CCc2ccc(Cl)c(Cl)c2)Cc2ccc(F)cc2)cc1 [93-33 (S)] : 520 nM

IN: Return reported IC50. Input compound: C[C@@H](CN1CCC(Cc2ccccc2)CC1)[C@@H](O)c1ccc(O)cc1 [Ro256981, reference compound]
OUT: 18 nM

###

Target: NR1-1a/NR2B receptors (Homo sapiens, UniProt Q05586+Q13224)
Assay: Two electrode voltage clamp of Xenopus oocytes expressing NR1-1a and NR2B NMDA receptor subunits; inhibition of glutamate/glycine current at pH 6.9 and 7.6
Format: cell-based
Conditions: Table D; IC50 at pH 7.6/IC50 at pH 6.9
Fold increase in potency between pH 7.6 and 6.9 values, listed per item
Number, no unit, nothing else.

CN(c1ccc(OC[C@@H](O)CNCCc2ccc(Cl)c(Cl)c2)cc1)S(C)(=O)=O [93-7 (S)] : 5.51
CS(=O)(=O)Nc1ccc(OC[C@@H](O)CNCCc2ccc(Cl)c(Cl)c2)cc1.Cl [93-4 (S)] : 3.54

IN: Return reported Fold increase in potency between pH 7.6 and 6.9. Input compound: OC(CNCCc1ccc(Cl)c(Cl)c1)COc1ccc(OC(F)(F)F)cc1 (racemic)
OUT: 4.82

IN: Return reported Fold increase in potency between pH 7.6 and 6.9. Input compound: CS(=O)(=O)Nc1cccc(OC[C@@H](O)CNCCc2ccc(Cl)c(Cl)c2)c1 [93-9 (S)]
OUT: 8.19

IN: Return reported Fold increase in potency between pH 7.6 and 6.9. Input compound: O=[N+]([O-])c1ccc(OC[C@@H](O)CNCCc2ccc(Cl)c(Cl)c2)cc1 [93-10 (S)]
OUT: 1.60

IN: Return reported Fold increase in potency between pH 7.6 and 6.9. Input compound: O=S(=O)(Nc1ccc(OCC(O)CNCCc2ccc(Cl)c(Cl)c2)cc1)c1ccccc1 [93-29 (S)]
OUT: 18.02

###

Molecular target: NR1-1a/NR2B receptors (Homo sapiens, UniProt Q05586+Q13224)
Experiment: Two electrode voltage clamp of Xenopus oocytes expressing NR1-1a and NR2B NMDA receptor subunits; inhibition of glutamate/glycine current at pH 6.9 and 7.6
Type: cell-based
Conditions: Table A; pH 6.9; NR1-1a/NR2B in Xenopus oocytes; read-out: IC50 at pH 6.9
pIC50: −log10 of the molar value.
pIC50 below 7 gives No; pIC50 at or above it gives Yes.

Solved cases below.
CS(=O)(=O)Nc1ccc(OC[C@@H](O)CN(CCO)CCc2ccc(Cl)c(Cl)c2)cc1 [93-8 (S)] : Yes
CCCCN(CCc1ccc(Cl)c(Cl)c1)C[C@H](O)COc1ccc(NS(C)(=O)=O)cc1 [93-31 (S)] : Yes
CC(=O)OC(COc1ccc(NS(C)(=O)=O)cc1)CN(CCc1ccc(Cl)c(Cl)c1)C(C)=O [93-28 (S)] : No

IN: Determine whether measured pIC50 meets or exceeds 7 for CCN(CCc1ccc(Cl)c(Cl)c1)C[C@H](O)COc1ccc(NS(C)(=O)=O)cc1 [93-5 (S)]
OUT: Yes

###

Fold increase in potency between pH 7.6 and 6.9 values, listed per item
Target: NR1-1a/NR2B receptors (Homo sapiens, UniProt Q05586+Q13224)
Test: Two electrode voltage clamp of Xenopus oocytes expressing NR1-1a and NR2B NMDA receptor subunits; inhibition of glutamate/glycine current at pH 6.9 and 7.6
Type: cell-based
Settings: Table C; IC50 at pH 7.6/IC50 at pH 6.9
Number, no unit, nothing else.

CS(=O)(=O)Nc1ccc(OC[C@@H](O)CN(CCO)CCc2ccc(Cl)c(Cl)c2)cc1 [93-8 (S)] : 11.3
CS(=O)(=O)Nc1ccc(OC[C@@H](O)CN(CCc2ccc(Cl)c(Cl)c2)Cc2ccccc2)cc1 [93-30 (S)] : 16.8
CCCN(CCc1ccc(Cl)c(Cl)c1)C[C@H](O)COc1ccc(NS(C)(=O)=O)cc1 [93-6 (S)] : 6.54
CS(=O)(=O)Nc1ccc(OC[C@@H](O)CNCCc2ccc(Cl)c(Cl)c2)cc1.Cl [93-4 (S)] : 3.54

IN: Return reported Fold increase in potency between pH 7.6 and 6.9. Input compound: CCN(CCc1ccc(Cl)c(Cl)c1)C[C@H](O)COc1ccc(NS(C)(=O)=O)cc1 [93-5 (S)]
OUT: 8.00

IN: Return reported Fold increase in potency between pH 7.6 and 6.9. Input compound: CN(CCc1ccc(Cl)c(Cl)c1)C[C@H](O)COc1ccc(NS(C)(=O)=O)cc1 [93-2 (S)]
OUT: 5.87

IN: Return reported Fold increase in potency between pH 7.6 and 6.9. Input compound: CCCCN(CCc1ccc(Cl)c(Cl)c1)C[C@H](O)COc1ccc(NS(C)(=O)=O)cc1 [93-31 (S)]
OUT: 51.2

IN: Return reported Fold increase in potency between pH 7.6 and 6.9. Input compound: CS(=O)(=O)Nc1ccc(OCC2CN(CCc3ccc(Cl)c(Cl)c3)C(=O)O2)cc1 [93-27 (S)]
OUT: 0.954

###

Biological target: NR1-1a/NR2B receptors (Homo sapiens, UniProt Q05586+Q13224)
Test: Two electrode voltage clamp of Xenopus oocytes expressing NR1-1a and NR2B NMDA receptor subunits; inhibition of glutamate/glycine current at pH 6.9 and 7.6
Format: cell-based
Conditions: Table B; IC50 at pH 7.6/IC50 at pH 6.9
Fold increase in potency between pH 7.6 and 6.9 values, listed per item

Sample records with Fold increase in potency between pH 7.6 and 6.9:
CS(=O)(=O)Nc1ccc(OCC2CN(CCc3ccc(Cl)c(Cl)c3)C(=O)O2)cc1 [93-27 (S)] : 0.95
CS(=O)(=O)Nc1ccc(OC[C@@H](O)CN(CCc2ccc(Cl)c(Cl)c2)Cc2cccc(F)c2)cc1 [93-34 (S)] : 4.62
C[C@@H](CN1CCC(Cc2ccccc2)CC1)[C@@H](O)c1ccc(O)cc1 [Ro256981, reference compound] : 0.444
CS(=O)(=O)Nc1ccc(OC[C@@H](O)CN(CCc2ccc(Cl)c(Cl)c2)Cc2ccccc2F)cc1 [93-35 (S)] : 3.60
CS(=O)(=O)Nc1ccc(OC[C@@H](O)CN(CCc2ccc(Cl)c(Cl)c2)Cc2ccc(F)cc2)cc1 [93-33 (S)] : 0.810

Please find the next compound below.
IN: Return reported Fold increase in potency between pH 7.6 and 6.9. Input compound: CS(=O)(=O)Nc1ccc(OC[C@@H](O)CNCCc2ccc(Cl)c(Cl)c2)cc1.Cl [93-4 (S)]
OUT: 3.54

###

Biological target: NR1-1a/NR2B receptors (Homo sapiens, UniProt Q05586+Q13224)
Test: Two electrode voltage clamp of Xenopus oocytes expressing NR1-1a and NR2B NMDA receptor subunits; inhibition of glutamate/glycine current at pH 6.9 and 7.6
Assay type: cell-based
Conditions: Table A; pH 6.9; NR1-1a/NR2B in Xenopus oocytes; read-out: IC50 at pH 6.9
pIC50 values, listed per item
Please express pIC50 as -log10 of the molar concentration.

Sample records with pIC50:
CCCN(CCc1ccc(Cl)c(Cl)c1)C[C@H](O)COc1ccc(NS(C)(=O)=O)cc1 [93-6 (S)] : 6.95
CS(=O)(=O)Nc1ccc(OC[C@@H](O)CN(CCc2ccc(Cl)c(Cl)c2)Cc2ccccc2)cc1 [93-30 (S)] : 7.15

IN: Please report the measured pIC50 for CN(CCc1ccc(Cl)c(Cl)c1)C[C@H](O)COc1ccc(NS(C)(=O)=O)cc1 [93-2 (S)] tested on NR1-1a/NR2B receptors (Homo sapiens, UniProt Q05586+Q13224).
OUT: 7.20
